Tested on: LU-65 (Non-Small Cell Lung Carcinoma)
protocolDetails: Bliss excess, mean over the matrix (fraction); higher = more synergy
metric: Bliss excess
When you answer, write just the number.

Exam item: # return recorded Bliss excess for input C=CCn1c(=O)c2cnc(Nc3ccc(N4CCN(C)CC4)cc3)nc2n1-c1cccc(C(C)(C)O)n1 [AZD1775] + O=C(c1cc(Cc2n[nH]c(=O)c3ccccc23)ccc1F)N1CCN(C(=O)C2CC2)CC1 [Olaparib] (first compound max 1 µM, partner max 10 µM)
Marked response: -0.0598

Exam item: # return recorded Bliss excess for input NC1(C(=O)N[C@@H](CCO)c2ccc(Cl)cc2)CCN(c2ncnc3[nH]ccc23)CC1 [Capivasertib] + CC(C)n1c(=O)n(C)c2cnc3cc(F)c(-c4ccc(OCCCN5CCCCC5)nc4)cc3c21 [AZD1390] (first compound max 10 µM, 7x7, partner max 0.3 µM)
Marked response: -0.248

Exam item: # return recorded Bliss excess for input COc1cccc(OCCCN)c1-c1cc(Nc2cnc(C#N)cn2)n[nH]1 [Prexasertib] + C[C@@H]1COCCN1C2=NC(=NC(=C2)C3(CC3)[S@](=N)(=O)C)C4=C5C=CNC5=NC=C4 [AZD6738] (first compound max 1 µM, 7x7, partner max 10 µM)
Marked response: -0.0173

Exam item: # return recorded Bliss excess for input CN(CCO)CC[C@H](CSc1ccccc1)Nc1ccc(S(=O)(=O)NC(=O)c2ccc(N3CCC([C@@H](O)c4ccccc4-c4ccc(Cl)cc4)CC3)cc2)cc1S(=O)(=O)C(F)(F)F [AZD4320] + C[C@@H]1COCCN1C2=NC(=NC(=C2)C3(CC3)[S@](=N)(=O)C)C4=C5C=CNC5=NC=C4 [AZD6738] (first compound max 1 µM, 7x7, partner max 10 µM)
Marked response: -0.0092

Exam item: # return recorded Bliss excess for input COc1cccc(OCCCN)c1-c1cc(Nc2cnc(C#N)cn2)n[nH]1 [Prexasertib] + O=C(c1cc(Cc2n[nH]c(=O)c3ccccc23)ccc1F)N1CCN(C(=O)C2CC2)CC1 [Olaparib] (first compound max 1 µM, 7x7, partner max 10 µM)
Marked response: -0.0678

Exam item: # return recorded Bliss excess for input CC1(C)CCC(CN2CCN(c3ccc(C(=O)NS(=O)(=O)c4ccc(NCC5CCOCC5)c([N+](=O)[O-])c4)c(Oc4cnc5[nH]ccc5c4)c3)CC2)=C(c2ccc(Cl)cc2)C1 [Venetoclax] + C1CN(CCC1(C(=O)N[C@@H](CCO)C2=CC=C(C=C2)Cl)N)C3=NC=NC4=C3C=CN4 [Capivasertib] (first compound max 1 µM, 7x7, partner max 3 µM)
Marked response: -0.0377

Exam item: # return recorded Bliss excess for input C[C@@H]1COCCN1c1cc(C2([S@](C)(=N)=O)CC2)nc(-c2ccnc3[nH]ccc23)n1 [AZD6738] + C1CC(C1)(C(=O)[O-])C(=O)[O-].N.N.[Pt+2] [Carboplatin] (first compound max 10 µM, 7x7, partner max 10 µM)
Marked response: -0.0954

---

System: NCI-H727 (Other Solid Carcinomas)
protocolDetails: combination Emax (second highest fraction inhibited in the dose matrix, 72 h); higher = more inhibition; extreme values may be limits of the assay
metric: combination Emax
When you answer, write just the number.

Exam item: # return recorded combination Emax for input COc1cccc(OCCCN)c1-c1cc(Nc2cnc(C#N)cn2)n[nH]1 [Prexasertib] + C=CCn1c(=O)c2cnc(Nc3ccc(N4CCN(C)CC4)cc3)nc2n1-c1cccc(C(C)(C)O)n1 [AZD1775] (first compound max 1 µM, partner max 1 µM)
Marked response: 0.701

Exam item: # return recorded combination Emax for input C[C@@H]1COCCN1c1cc(C2([S@](C)(=N)=O)CC2)nc(-c2ccnc3[nH]ccc23)n1 [AZD6738] + Nc1ccn([C@@H]2O[C@H](CO)[C@@H](O)C2(F)F)c(=O)n1 [Gemcitabine] (first compound max 10 µM, 7x7, partner max 0.3 µM)
Marked response: 0.526

Exam item: # return recorded combination Emax for input CCc1c2c(nc3ccc(O)cc13)-c1cc3c(c(=O)n1C2)COC(=O)[C@]3(O)CC [SN-38] + CN(C)CCCOc1ccc(-c2ccc3ncc4c(c3c2)n(C2CCOCC2)c(=O)n4C)cn1 [AZD0156] (first compound max 0.3 µM, 7x7, partner max 1 µM)
Marked response: 0.297

Exam item: # return recorded combination Emax for input CN(CCO)CC[C@H](CSc1ccccc1)Nc1ccc(S(=O)(=O)NC(=O)c2ccc(N3CCC([C@@H](O)c4ccccc4-c4ccc(Cl)cc4)CC3)cc2)cc1S(=O)(=O)C(F)(F)F [AZD4320] + C[C@@H](Nc1cc(F)cc(F)c1)c1cc(C(=O)N(C)C)cc2c(=O)cc(N3CCOCC3)oc12 [AZD8186] (first compound max 1 µM, 7x7, partner max 3 µM)
Marked response: 0.378

Exam item: # return recorded combination Emax for input CN(CCO)CC[C@H](CSc1ccccc1)Nc1ccc(S(=O)(=O)NC(=O)c2ccc(N3CCC([C@@H](O)c4ccccc4-c4ccc(Cl)cc4)CC3)cc2)cc1S(=O)(=O)C(F)(F)F [AZD4320] + CN(C)CCCOc1ccc(-c2ccc3ncc4c(c3c2)n(C2CCOCC2)c(=O)n4C)cn1 [AZD0156] (first compound max 1 µM, 7x7, partner max 1 µM)
Marked response: 0.214

Exam item: # return recorded combination Emax for input Cc1c2c(nn1C)CSCc1cc(n(C)n1)CSc1cc(c3ccccc3c1)OCCCc1c(C(=O)O)n(C)c3c-2c(Cl)ccc13 [AZD5991] + CS(=O)(=O)CCNCc1ccc(-c2ccc3ncnc(Nc4ccc(OCc5cccc(F)c5)c(Cl)c4)c3c2)o1 [Lapatinib] (first compound max 1 µM, 7x7, partner max 10 µM)
Marked response: 0.299

Exam item: # return recorded combination Emax for input O=C(c1cc(Cc2n[nH]c(=O)c3ccccc23)ccc1F)N1CCN(C(=O)C2CC2)CC1 [Olaparib] + Cc1c2c(nn1C)CSCc1cc(n(C)n1)CSc1cc(c3ccccc3c1)OCCCc1c(C(=O)O)n(C)c3c-2c(Cl)ccc13 [AZD5991] (first compound max 10 µM, 7x7, partner max 1 µM)
Marked response: 0.106

---

Test system: OSC-20 (Oral Cavity Carcinoma)
protocolDetails: Bliss excess, mean over the matrix (fraction); higher = more synergy
Provide the reported Bliss excess of each item.
When you answer, write just the number.

Exam item: # return recorded Bliss excess for input COc1cccc2c1C(=O)c1c(O)c3c(c(O)c1C2=O)C[C@@](O)(C(=O)CO)C[C@@H]3O[C@H]1C[C@H](N)[C@H](O)[C@H](C)O1 [Doxorubicin] + Cc1cc2ncnn2cc1Nc1ncc2c(n1)n(C1CCOCC1)c(=O)n2C [AZD7648] (first compound max 1 µM, 7x7, partner max 10 µM)
Marked response: 0.0204

Exam item: # return recorded Bliss excess for input CC1(C)CCC(CN2CCN(c3ccc(C(=O)NS(=O)(=O)c4ccc(NCC5CCOCC5)c([N+](=O)[O-])c4)c(Oc4cnc5[nH]ccc5c4)c3)CC2)=C(c2ccc(Cl)cc2)C1 [Venetoclax] + C[C@@H]1COCCN1C2=NC(=NC(=C2)C3(CC3)[S@](=N)(=O)C)C4=C5C=CNC5=NC=C4 [AZD6738] (first compound max 1 µM, 7x7, partner max 10 µM)
Marked response: -0.0599

Exam item: # return recorded Bliss excess for input Cn1cnc2c(F)c(Nc3ccc(Br)cc3Cl)c(C(=O)NOCCO)cc21 [Selumetinib] + C=CCn1c(=O)c2cnc(Nc3ccc(N4CCN(C)CC4)cc3)nc2n1-c1cccc(C(C)(C)O)n1 [AZD1775] (first compound max 10 µM, partner max 1 µM)
Marked response: -0.019

Exam item: # return recorded Bliss excess for input Cc1c2c(nn1C)CSCc1cc(n(C)n1)CSc1cc(c3ccccc3c1)OCCCc1c(C(=O)O)n(C)c3c-2c(Cl)ccc13 [AZD5991] + C=CCn1c(=O)c2cnc(Nc3ccc(N4CCN(C)CC4)cc3)nc2n1-c1cccc(C(C)(C)O)n1 [AZD1775] (first compound max 1 µM, partner max 1 µM)
Marked response: -0.0115

Exam item: # return recorded Bliss excess for input CC1(C)CCC(CN2CCN(c3ccc(C(=O)NS(=O)(=O)c4ccc(NCC5CCOCC5)c([N+](=O)[O-])c4)c(Oc4cnc5[nH]ccc5c4)c3)CC2)=C(c2ccc(Cl)cc2)C1 [Venetoclax] + C[C@@H](Nc1cc(F)cc(F)c1)c1cc(C(=O)N(C)C)cc2c(=O)cc(N3CCOCC3)oc12 [AZD8186] (first compound max 1 µM, 7x7, partner max 3 µM)
Marked response: -0.0516

Exam item: # return recorded Bliss excess for input Cc1c2c(nn1C)CSCc1cc(n(C)n1)CSc1cc(c3ccccc3c1)OCCCc1c(C(=O)O)n(C)c3c-2c(Cl)ccc13 [AZD5991] + CC1(C)CCC(CN2CCN(c3ccc(C(=O)NS(=O)(=O)c4ccc(NCC5CCOCC5)c([N+](=O)[O-])c4)c(Oc4cnc5[nH]ccc5c4)c3)CC2)=C(c2ccc(Cl)cc2)C1 [Venetoclax] (first compound max 1 µM, 7x7, partner max 1 µM)
Marked response: -0.0059

Exam item: # return recorded Bliss excess for input Cc1cc2ncnn2cc1Nc1ncc2c(n1)n(C1CCOCC1)c(=O)n2C [AZD7648] + CCN(CCO)CCCOc1ccc2c(Nc3cc(CC(=O)Nc4cccc(F)c4)[nH]n3)ncnc2c1 [AZD2811] (first compound max 10 µM, 7x7, partner max 1 µM)
Marked response: -0.0209

Exam item: # return recorded Bliss excess for input Cc1cc2ncnn2cc1Nc1ncc2c(n1)n(C1CCOCC1)c(=O)n2C [AZD7648] + C[C@@H]1COCCN1C2=NC(=NC(=C2)C3(CC3)[S@](=N)(=O)C)C4=C5C=CNC5=NC=C4 [AZD6738] (first compound max 10 µM, 7x7, partner max 10 µM)
Marked response: 0.0065

Exam item: # return recorded Bliss excess for input CC(=O)Nc1cccc(-n2c(=O)n(C3CC3)c(=O)c3c(Nc4ccc(I)cc4F)n(C)c(=O)c(C)c32)c1 [Trametinib] + Cc1nc(-c2cn3c(n2)-c2ccc(-c4cnn(C(C)(C)C(N)=O)c4)cc2OCC3)n(C(C)C)n1 [Taselisib] (first compound max 1 µM, 7x7, partner max 10 µM)
Marked response: 0.0925

Exam item: # return recorded Bliss excess for input CCN(CCO)CCCOc1ccc2c(Nc3cc(CC(=O)Nc4cccc(F)c4)[nH]n3)ncnc2c1 [AZD2811] + O=C(c1cc(Cc2n[nH]c(=O)c3ccccc23)ccc1F)N1CCN(C(=O)C2CC2)CC1 [Olaparib] (first compound max 1 µM, 7x7, partner max 10 µM)
Marked response: -0.0196

Exam item: # return recorded Bliss excess for input COc1nnc2ccc(N3CCC(c4ccc(OCCN5CCN(C)C(=O)[C@H]5C)cc4)CC3)nn12 [AZD5153] + CCN(CCO)CCCOc1ccc2c(Nc3cc(CC(=O)Nc4cccc(F)c4)[nH]n3)ncnc2c1 [AZD2811] (first compound max 1 µM, 7x7, partner max 1 µM)
Marked response: -0.0785

Exam item: # return recorded Bliss excess for input Cc1c2c(nn1C)CSCc1cc(n(C)n1)CSc1cc(c3ccccc3c1)OCCCc1c(C(=O)O)n(C)c3c-2c(Cl)ccc13 [AZD5991] + C1CN(CCC1(C(=O)N[C@@H](CCO)C2=CC=C(C=C2)Cl)N)C3=NC=NC4=C3C=CN4 [Capivasertib] (first compound max 1 µM, 7x7, partner max 3 µM)
Marked response: 0.0036

Exam item: # return recorded Bliss excess for input CN(CCO)CC[C@H](CSc1ccccc1)Nc1ccc(S(=O)(=O)NC(=O)c2ccc(N3CCC([C@@H](O)c4ccccc4-c4ccc(Cl)cc4)CC3)cc2)cc1S(=O)(=O)C(F)(F)F [AZD4320] + CN(C)CCCOc1ccc(-c2ccc3ncc4c(c3c2)n(C2CCOCC2)c(=O)n4C)cn1 [AZD0156] (first compound max 1 µM, 7x7, partner max 1 µM)
Marked response: -0.0595

Entry source: the supplement of paper PMC11061612
